- system_tested: 5'-AMP-activated protein kinase catalytic subunit alpha-1 (Homo sapiens)
- protocol_notes: Activation of recombinant AMPK alpha1 (1 to 394) (unknown origin) at 20 ug/mL after 2 hrs by scintillation proximity assay relative to PT1
- Sequence (Q13131 whole entry, looked up): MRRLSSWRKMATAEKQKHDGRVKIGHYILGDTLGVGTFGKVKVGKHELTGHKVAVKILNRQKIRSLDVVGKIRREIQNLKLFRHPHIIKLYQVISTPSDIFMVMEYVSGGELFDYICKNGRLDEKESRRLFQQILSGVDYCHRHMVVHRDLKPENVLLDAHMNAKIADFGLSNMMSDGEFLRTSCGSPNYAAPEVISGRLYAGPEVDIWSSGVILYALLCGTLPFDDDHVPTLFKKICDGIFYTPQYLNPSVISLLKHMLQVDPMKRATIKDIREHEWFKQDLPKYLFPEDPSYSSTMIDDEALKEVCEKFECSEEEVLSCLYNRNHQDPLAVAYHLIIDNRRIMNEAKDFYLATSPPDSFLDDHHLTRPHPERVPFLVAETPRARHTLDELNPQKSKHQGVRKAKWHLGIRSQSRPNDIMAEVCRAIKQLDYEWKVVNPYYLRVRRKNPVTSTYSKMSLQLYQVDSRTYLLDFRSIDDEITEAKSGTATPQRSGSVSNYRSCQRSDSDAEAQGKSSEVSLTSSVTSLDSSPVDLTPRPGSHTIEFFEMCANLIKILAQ
observation_type: Activity (%)

(A) O=C1N/C(=N/c2ccc(Cl)c(C(=O)O)c2)S/C1=C\c1ccc(-c2cccc([N+](=O)[O-])c2)o1
(B) Cc1cc(-c2ccc(/C=C3\S/C(=N\c4cccc(C(=O)O)c4)NC3=O)o2)c([N+](=O)[O-])cc1C
(C) O=C(O)c1cccc(CN2C(=O)/C(=C/c3ccc(-c4cccc([N+](=O)[O-])c4)o3)c3ccccc32)c1
(D) Cc1cc(-c2ccc(/C=C3\S/C(=N\c4ccccc4C(=O)O)NC3=O)o2)c([N+](=O)[O-])cc1C
Thanks in advance: please rank these 4 entries by Activity, highest to lowest. State the ranking by listing the labels in the requested order.
C, A, B, D
(C: 341%, A: 176%, B: 106%, D: 55%)

---

- protocol_notes: Terminal half life in Wistar rat at 2 mg/kg, iv by LC-MS/MS analysis
- Format: ADME, organism-based
- Parameters: dose 2 mg/kg, route intravenous
- stated_conditions: in vivo, read-out: beta t1/2 (converted)
observation_type: half-life (h)
The reply should be a number in h, with the unit left off.

Dear colleague, please send me the reported half-life for O=C(O)c1cccc(CN2C(=O)/C(=C(\c3ccccc3)c3ccc(Cl)cc3)c3ccccc32)c1 when you can.
3.94

---

- system_tested: 5'-AMP-activated protein kinase catalytic subunit alpha-2 (Homo sapiens)
- Sequence (P54646 whole entry): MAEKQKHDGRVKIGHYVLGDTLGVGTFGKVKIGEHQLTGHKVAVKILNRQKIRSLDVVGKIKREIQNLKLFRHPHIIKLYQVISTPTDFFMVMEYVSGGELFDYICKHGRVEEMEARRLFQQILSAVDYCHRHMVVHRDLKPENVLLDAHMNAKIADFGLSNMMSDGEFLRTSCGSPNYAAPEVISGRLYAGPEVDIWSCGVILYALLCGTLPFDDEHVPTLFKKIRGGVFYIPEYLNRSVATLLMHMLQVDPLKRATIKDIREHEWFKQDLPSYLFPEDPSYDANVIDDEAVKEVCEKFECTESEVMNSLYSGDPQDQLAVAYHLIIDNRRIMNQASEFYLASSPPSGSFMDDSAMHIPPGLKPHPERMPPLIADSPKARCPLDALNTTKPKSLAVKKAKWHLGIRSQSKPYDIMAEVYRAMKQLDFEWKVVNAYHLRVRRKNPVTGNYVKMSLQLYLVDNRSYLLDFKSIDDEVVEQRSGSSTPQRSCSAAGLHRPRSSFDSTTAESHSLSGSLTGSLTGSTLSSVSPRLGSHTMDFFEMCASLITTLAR
- protocol_notes: Activation of human AMPK alpha2 (1 to 398) expressed in African green monkey COS7 cells
observation_type: pEC50
Schema: pEC50 number; meaning minus log10 of the concentration expressed in molar units.

Check the records and state pEC50 for Cc1cc(-c2ccc(/C=C3\S/C(=N\c4ccc(Cl)c(C(=O)O)c4)NC3=O)o2)c([N+](=O)[O-])cc1C
4.92

---

- system_tested: 5'-AMP-activated protein kinase catalytic subunit alpha-1 (Homo sapiens)
- protocol_notes: Activation of recombinant AMPK alpha1 (1 to 394) (unknown origin) after 2 hrs by scintillation proximity assay
- Sequence (Q13131 whole entry): as the sequence (Q13131 whole entry, looked up) above
observation_type: EC50 (µM)

(I) O=C(O)c1cccc(CN2C(=O)/C(=C/c3ccc(-c4cccc([N+](=O)[O-])c4)o3)c3ccccc32)c1
(II) Cc1cc(-c2ccc(/C=C3\S/C(=N\c4ccc(Cl)c(C(=O)O)c4)NC3=O)o2)c([N+](=O)[O-])cc1C
Of the pair I and II , name the member with the lesser recorded EC50. Your choice should be expressed through its label.
I

---

- system_tested: 5'-AMP-activated protein kinase catalytic subunit alpha-1 (Homo sapiens, UniProt Q13131)
- protocol_notes: Activation of human AMPK alpha1 (1 to 394) expressed in African green monkey COS7 cells
- Assay type: cell-based, COS-7
observation_type: EC50 (µM)
Just the number please, in µM, no unit attached.

Please indicate recorded EC50 of Cc1cc(-c2ccc(/C=C3\S/C(=N\c4ccc(Cl)c(C(=O)O)c4)NC3=O)o2)c([N+](=O)[O-])cc1C measured with 5'-AMP-activated protein kinase catalytic subunit alpha-1 (Homo sapiens, UniProt Q13131).
9

---

- system_tested: AMPK alpha2/beta1/gamma1 (Homo sapiens, UniProt P54619+P54646+Q9Y478)
- Sequence (P54646 whole entry): as the sequence (P54646 whole entry) above
- Sequence (P54619 whole entry): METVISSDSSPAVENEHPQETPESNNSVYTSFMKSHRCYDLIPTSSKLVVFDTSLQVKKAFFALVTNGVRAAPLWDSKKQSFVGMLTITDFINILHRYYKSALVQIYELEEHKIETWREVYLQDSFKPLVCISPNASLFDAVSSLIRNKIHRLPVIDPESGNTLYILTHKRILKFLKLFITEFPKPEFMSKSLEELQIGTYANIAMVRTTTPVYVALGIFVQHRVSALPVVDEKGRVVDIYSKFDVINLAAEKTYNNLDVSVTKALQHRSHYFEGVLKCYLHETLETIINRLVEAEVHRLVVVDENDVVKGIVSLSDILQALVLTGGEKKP
- Sequence (Q9Y478 whole entry): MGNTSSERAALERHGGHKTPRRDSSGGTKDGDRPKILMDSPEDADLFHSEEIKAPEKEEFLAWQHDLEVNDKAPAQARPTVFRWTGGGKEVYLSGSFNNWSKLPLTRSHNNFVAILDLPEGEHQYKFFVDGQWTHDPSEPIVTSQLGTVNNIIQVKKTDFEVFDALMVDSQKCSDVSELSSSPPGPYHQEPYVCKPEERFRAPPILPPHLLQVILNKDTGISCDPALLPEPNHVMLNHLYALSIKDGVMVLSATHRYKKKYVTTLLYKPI
- protocol_notes: Activation of recombinant AMPK alpha2beta1gamma1 (unknown origin) after 2 hrs by scintillation proximity assay
pEC50: −log10 of the molar value.
observation_type: pEC50

Worked cases, pEC50 given:
In [3]: df
Out[3]:
                                 smiles_str  observation_type  reported_value
0  O=C(O)c1cccc(CN2C(=O)/C(=C(\c3ccccc3)c3ccccc3OC(F)(F)F)c3ccccc32)c1             pEC50            5.13
1  O=C(O)c1cccc(CN2C(=O)/C(=C(\c3ccccc3)c3ccc(Cl)cc3)c3ccccc32)c1             pEC50            5.92
2  O=C(O)c1cccc(CN2C(=O)/C(=C(/c3ccc(Cl)cc3)C3CCCCC3)c3ccccc32)c1             pEC50            5.34

(a) O=C(O)c1cccc(CN2C(=O)/C(=C(\c3ccccc3)c3cccnc3)c3ccccc32)c1
(b) O=C(O)c1ccc(CN2C(=O)/C(=C(\c3ccccc3)c3ccc(Cl)cc3)c3ccccc32)nc1
Choose between a and b : whose measured pEC50 value is numerically larger? Return value: the label identifying the chosen record.
a
(a: 5.49, b: 5.04)
